pIC50: −log10 of the molar value.
// endpoint pIC50 / system WEE1 kinase (Homo sapiens, UniProt P30291)

| molecule | pIC50 |
| --- | --- |
| CN1CC2(CCN(c3ccc(Nc4ncc5cc(C6CC6)n(-c6cccc(N=S(C)(C)=O)n6)c5n4)cc3)CC2)C1 [Example 85] | 9.07 |
| CN1CC2(CCN(c3ccc(Nc4ncc5c(F)c(C6CC6)n(-c6cccc(N=S(C)(C)=O)n6)c5n4)cc3)CC2)C1 [Example 86] | 9.27 |
| CCCc1cc2cnc(Nc3ccc(N4CCC(N5CCN(C)CC5)CC4)cc3)nc2n1-c1cccc(N=S(C)(C)=O)n1 [Example 136] | 9.05 |
| CS(C)(=O)=Nc1cccc(-n2c(C3CC3)c(F)c3cnc(Nc4ccc(C5C[C@H]6CC[C@@H](C5)N6)cc4)nc32)n1 (stereo partly drawn) [Example 63] | 9.07 |
| CS(C)(=O)=Nc1cccc(-n2c(C3CC3)cc3cnc(Nc4ccc(N5CC6CCC(C5)N6)c(F)c4)nc32)n1 [Example 101] | 9.15 |
| CN1CCN(C2CCN(c3ccc(Nc4ncc5cc(C6CC6)n(-c6cccc(N=S(C)(C)=O)n6)c5n4)cc3F)CC2)CC1 [Example 48] | 9.10 |
